- EXPERIMENTAL_PROTOCOL: NCI Yeast Anticancer Drug Screen. Data for the mec2-1 strain (AID 157)
- COND: S. cerevisiae mec2-1 strain, at 50.0 µM, stronger effect = higher value
The panel holds about 79,000 compounds, 15% with a hit somewhere; the sample as a whole holds those more often.
Give measured growth inhibition for each item. Keep answers brief.
Provide only the numeric value, understood in %.

Enquiry: Hello, please tell me recorded growth inhibition for this one: CO/N=C(\C(=O)N(C)n1cnnc1)c1csc(NC(c2ccccc2)(c2ccccc2)c2ccccc2)n1
Return: 13.2

Enquiry: Hello, please tell me recorded growth inhibition for this one: COc1cccc(/C(C=O)=C(\Cl)c2ccc(OC)c(OC)c2)c1
Return: 9.55

Enquiry: Hello, please tell me recorded growth inhibition for this one: O=C(NC1CCCCC1)C1C(=O)C(=O)N(C2CCCCC2)C1=O (stereo not given)
Return: -1.35

Enquiry: Hello, please tell me recorded growth inhibition for this one: CC1C=CC(C(N)C(=O)O)O1 (stereo not given)
Return: -17.6

Enquiry: Hello, please tell me recorded growth inhibition for this one: CC(=O)c1ccc(OC(=O)Nc2ccc(C)cc2)cc1
Return: 27.3

Enquiry: Hello, please tell me recorded growth inhibition for this one: COc1cc(NCCCCCNC(C)C)c2ncccc2c1OC
Return: -9.9

Enquiry: Hello, please tell me recorded growth inhibition for this one: ClC1CC2CC1C1COCC21 (stereo not given)
Return: -5.35

Enquiry: Hello, please tell me recorded growth inhibition for this one: COc1cc(/C=C2/C(=O)N=C(NC(C)=O)N2C)ccc1OC(C)=O
Return: -2.55

Enquiry: Hello, please tell me recorded growth inhibition for this one: CN1N=CSC12C(=O)N(c1ccc(Cl)cc1)C(=O)N2c1ccc(Cl)cc1 (stereo not given)
Return: 3.6

Enquiry: Hello, please tell me recorded growth inhibition for this one: OCCOCCNc1ncnc2cc(Cl)ccc12
Return: -14.7

Enquiry: Hello, please tell me recorded growth inhibition for this one: N#CC(C#N)=Cn1c(=S)[nH]c2ccc([N+](=O)[O-])cc21
Return: -19.6

Enquiry: Hello, please tell me recorded growth inhibition for this one: Cc1cc(C)c(C#[N+][O-])c(C)c1C#[N+][O-]
Return: 8.1

Enquiry: Hello, please tell me recorded growth inhibition for this one: CC(=O)Nc1ccc(NC(=O)c2cccc3ccccc23)cc1
Return: 13

Enquiry: Hello, please tell me recorded growth inhibition for this one: N#CCCCCN1CCOCC1
Return: -7.5

Enquiry: Hello, please tell me recorded growth inhibition for this one: C=CCN1C(=O)/C(=C/c2ccc(OCC(=O)O)cc2)SC1=S
Return: -11.2

Enquiry: Hello, please tell me recorded growth inhibition for this one: O=C(O)CC1CCCc2ccccc2C1CC(=O)O (stereo not given)
Return: -4.3

Enquiry: Hello, please tell me recorded growth inhibition for this one: C=C(C)C#CC1(O)C=C(OC)C(OC)=CC1=O (stereo not given)
Return: -12.7

Enquiry: Hello, please tell me recorded growth inhibition for this one: O=c1c2ccccc2nc(-c2ccccc2)n1/N=C/c1ccccc1O
Return: 38.8

Enquiry: Hello, please tell me recorded growth inhibition for this one: CNC(=S)NC(=S)N(C)C
Return: -29.9

Enquiry: Hello, please tell me recorded growth inhibition for this one: CC(=O)OC1C(NC(=O)OCc2ccccc2)CC(NC(=O)OCc2ccccc2)C(O)C1O (stereo not given)
Return: -12.5

Enquiry: Hello, please tell me recorded growth inhibition for this one: CCCCOC(=O)c1ccc(OC(=O)Nc2cccc(Cl)c2)cc1
Return: 2.3

Enquiry: Hello, please tell me recorded growth inhibition for this one: NNc1ccc(S(=O)(=O)O)cc1Cl
Return: -14.4

Enquiry: Hello, please tell me recorded growth inhibition for this one: COc1cc(C2OCC3C(c4ccc(O)c(OC)c4)OCC23)ccc1O (stereo not given)
Return: -20.4

Enquiry: Hello, please tell me recorded growth inhibition for this one: CC(=O)OCC1OC(n2cc(F)c(=O)[nH]c2=O)C(NC(=O)N(CCCl)N=O)C(OC(C)=O)C1OC(C)=O (stereo not given)
Return: -13.9

Enquiry: Hello, please tell me recorded growth inhibition for this one: CC(=O)N(c1ccccc1)c1cc(Cl)cc[n+]1[O-]
Return: 3.5
